Give log10 Ki for every item shown.
# Measured target: Translocator protein (Rattus norvegicus, UniProt P16257)
# Sequence (P16257 whole entry, looked up): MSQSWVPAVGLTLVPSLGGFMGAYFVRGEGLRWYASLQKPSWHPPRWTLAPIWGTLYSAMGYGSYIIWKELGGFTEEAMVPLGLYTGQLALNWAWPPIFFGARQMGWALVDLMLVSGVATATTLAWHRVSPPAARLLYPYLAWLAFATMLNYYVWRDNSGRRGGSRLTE
# Run description: Displacement of [3H]PK11195 from peripheral benzodiazepine receptor of rat cerebral cortex
# Assay type: tissue-based
A difference of one corresponds to tenfold Ki; all values are log10 with Ki in nM.

Task: Please give the measured log10 Ki for this molecule: CCCCNC(=O)Cc1c(-c2ccc(Cl)cc2)nc2c(Cl)cc(Cl)cn12
Output: 2.23

Task: Please give the measured log10 Ki for this molecule: O=C(Cc1c(-c2ccccc2)nc2c(Cl)cc(Cl)cn12)N1CCCCC1
Output: 1.98

Task: Please give the measured log10 Ki for this molecule: CCCN(Cc1ccc([N+](=O)[O-])cc1)C(=O)Cc1c(-c2ccc(Cl)cc2)nc2c(Cl)cc(Cl)cn12
Output: 1.20

Task: Please give the measured log10 Ki for this molecule: CCCCCCN(CCCCCC)C(=O)Cc1c(-c2ccc(Cl)cc2)nc2c(Cl)cc(Cl)cn12
Output: 2.35

Task: Please give the measured log10 Ki for this molecule: CCCCN(C)C(=O)Cc1c(-c2ccccc2)nc2c(Cl)cc(Cl)cn12
Output: 0.33

Task: Please give the measured log10 Ki for this molecule: CCCCCCN(CCCCCC)C(=O)Cc1c(-c2ccc(Cl)cc2)nc2ccc(Cl)cn12
Output: 0.48

Task: Please give the measured log10 Ki for this molecule: O=C(Cc1c(-c2ccc(Cl)cc2)nc2c(Cl)cc(Cl)cn12)N1CCN(Cc2ccccc2)CC1
Output: 4.10

Task: Please give the measured log10 Ki for this molecule: CCCCN(C(=O)Cc1c(-c2ccccc2)nc2c(Cl)cc(Cl)cn12)c1ccccc1
Output: 0.83

Task: Please give the measured log10 Ki for this molecule: O=C(Cc1c(-c2ccc(Cl)cc2)nc2c(Cl)cc(Cl)cn12)N1CCc2ccccc2C1
Output: 0.47

Task: Please give the measured log10 Ki for this molecule: CCCCN(Cc1ccccc1)C(=O)Cc1c(-c2ccccc2)nc2c(Cl)cc(Cl)cn12
Output: 1.15

Task: Please give the measured log10 Ki for this molecule: CCCCN(C(=O)Cc1c(-c2ccc(Cl)cc2)nc2ccc(Cl)cn12)c1ccccc1
Output: -0.05

Task: Please give the measured log10 Ki for this molecule: CCOC(=O)C1CCCN(C(=O)Cc2c(-c3ccc(Cl)cc3)nc3c(Cl)cc(Cl)cn23)C1 (centres undefined)
Output: 1.90

Task: Please give the measured log10 Ki for this molecule: CN(Cc1ccccc1)C(=O)Cc1c(-c2ccc(Cl)cc2)nc2c(Cl)cc(Cl)cn12
Output: 0.14

Task: Please give the measured log10 Ki for this molecule: CN(CCc1ccccn1)C(=O)Cc1c(-c2ccccc2)nc2c(Cl)cc(Cl)cn12
Output: 3.11

Task: Please give the measured log10 Ki for this molecule: CC(C(=O)N(C)C1CCCCC1)c1c(-c2ccc(Cl)cc2)nc2c(Cl)cc(Cl)cn12 (centres undefined)
Output: 3.48

Task: Please give the measured log10 Ki for this molecule: O=C(Cc1c(-c2ccccc2)nc2c(Cl)cc(Cl)cn12)Nc1ccncc1
Output: 3.09

Task: Please give the measured log10 Ki for this molecule: CCCCN(CCCC)C(=O)Cc1c(-c2ccc(Cl)cc2)nc2ccc(Cl)cn12
Output: 0.23

Task: Please give the measured log10 Ki for this molecule: CCCN(CCC)C(=O)C(C)c1c(-c2ccc(Cl)cc2)nc2c(Cl)cc(Cl)cn12 (centres undefined)
Output: 2.85

Task: Please give the measured log10 Ki for this molecule: CN(CCc1ccccn1)C(=O)Cc1c(-c2ccc(Cl)cc2)nc2c(Cl)cc(Cl)cn12
Output: 2.72
